self-cleavage kobs at 160 uM GlcN6P values for the variants below.
B1: glmS ribozyme (parent)
chain: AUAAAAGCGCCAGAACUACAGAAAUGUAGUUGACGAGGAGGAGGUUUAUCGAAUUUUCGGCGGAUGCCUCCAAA

variants of: B1; assay: self-cleavage kobs at 160 uM GlcN6P; higher = faster cleavage; RNA array; details: with glucosamine-6-phosphate
Variants at the floor of the assay were thinned out.

{"columns": ["Variant designation", "self-cleavage kobs at 160 uM GlcN6P"],
 "data": [
  ["G29U C50U", "< 1e-05 s⁻¹"],
  ["G35A U55C", "< 1e-05 s⁻¹"],
  ["A53C A64G", "0.000218 s⁻¹"],
  ["A6C C67U", "< 1e-05 s⁻¹"],
  ["U49A C50G U57A C67A C71A", "0.000223 s⁻¹"],
  ["C8G G37A", "< 1e-05 s⁻¹"],
  ["G59U C71G", "< 1e-05 s⁻¹"],
  ["C67U", "0.0016 s⁻¹"],
  ["A14U G35U G44C", "< 1e-05 s⁻¹"],
  ["A28G C70A", "0.000126 s⁻¹"],
  ["A15C C16U", "0.000159 s⁻¹"],
  ["U47C C61U", "< 1e-05 s⁻¹"],
  ["C8A A12C", "< 1e-05 s⁻¹"],
  ["G32C A53C", "< 1e-05 s⁻¹"],
  ["A39U A48G", "< 1e-05 s⁻¹"],
  ["A15G U45A U56G A64C C70A", "< 1e-05 s⁻¹"],
  ["G13A G63A", "< 1e-05 s⁻¹"],
  ["A33G U56A", "< 1e-05 s⁻¹"],
  ["G7U U30G", "< 1e-05 s⁻¹"],
  ["A14C C50G C70G", "0.000127 s⁻¹"],
  ["U30G G37U", "< 1e-05 s⁻¹"],
  ["A12G G40A A42C", "< 1e-05 s⁻¹"]
]}
